target system: rat CB2 receptor (Rattus norvegicus)
Sequence (Q9QZN9 1-360): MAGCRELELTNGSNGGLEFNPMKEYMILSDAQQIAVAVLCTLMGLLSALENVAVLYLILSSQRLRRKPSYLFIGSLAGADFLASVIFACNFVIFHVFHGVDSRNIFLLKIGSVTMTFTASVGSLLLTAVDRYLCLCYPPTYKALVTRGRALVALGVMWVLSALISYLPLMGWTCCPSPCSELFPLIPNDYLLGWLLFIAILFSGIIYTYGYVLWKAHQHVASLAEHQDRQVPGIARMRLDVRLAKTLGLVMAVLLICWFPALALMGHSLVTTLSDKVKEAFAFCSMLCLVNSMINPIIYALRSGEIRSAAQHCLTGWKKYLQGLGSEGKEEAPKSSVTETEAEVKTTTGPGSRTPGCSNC
protocol text: β-arrestin recruitment assay (PathHunter CHO-K1)
Assay type: cell-based
Set-up: host or cells: PathHunter CHO-K1
protocol conditions: relative to CP55,940
β-arrestin efficacy compared to CP55,940, rat CB2 by entry:
readout: β-arrestin efficacy compared to CP55,940, rat CB2 (%)

>  <compound>
CNC(=O)[C@@H](NC(=O)c1nn(-c2c[n+]([O-])ccn2)c2c1C[C@H]1C[C@@H]21)C(C)(C)C

>  <readout value>
88

$$$$
>  <compound>
CC(C)(C)NC(=O)c1nn(-c2ccc(F)cc2F)c2c1C1CCC2C1 (stereo not shown)

>  <readout value>
89

$$$$
>  <compound>
CC(CO)(CO)NC(=O)c1nn(-c2cc(C#N)ccn2)c2c1C[C@H]1C[C@@H]21

>  <readout value>
56

$$$$
>  <compound>
O=C(NCC1CCOCC1)c1cnc(Nc2ccc(Cl)cc2Cl)nc1C(F)(F)F [GW842166X]

>  <readout value>
97

$$$$

###

target system: rat CB2 receptor (Rattus norvegicus, UniProt Q9QZN9)
protocol text: β-arrestin recruitment assay (PathHunter CHO-K1)
pEC50: −log10 of the molar value.

>  <compound>
O=C(NCC1CCOCC1)c1cnc(Nc2ccc(Cl)cc2Cl)nc1C(F)(F)F [GW842166X]

>  <pEC50>
6.37

$$$$
>  <compound>
CC(C)(C)NC(=O)c1nn(-c2ccc(F)cc2F)c2c1C1CCC2C1 (centres unmarked) [GRC 10693]

>  <pEC50>
8.70

$$$$

###

β-arrestin efficacy compared to CP55,940, human CB2 by entry:
target system: hCB2 (Homo sapiens)
Sequence (P34972 whole entry): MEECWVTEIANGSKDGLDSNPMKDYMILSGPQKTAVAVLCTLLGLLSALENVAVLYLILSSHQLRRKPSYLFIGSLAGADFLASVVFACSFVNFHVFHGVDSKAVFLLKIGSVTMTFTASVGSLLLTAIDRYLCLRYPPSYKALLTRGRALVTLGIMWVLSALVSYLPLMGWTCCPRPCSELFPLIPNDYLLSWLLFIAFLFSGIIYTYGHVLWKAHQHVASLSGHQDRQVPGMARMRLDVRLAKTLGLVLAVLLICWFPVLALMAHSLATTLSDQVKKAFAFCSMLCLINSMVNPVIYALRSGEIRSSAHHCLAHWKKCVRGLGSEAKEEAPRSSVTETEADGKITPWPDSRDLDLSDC
protocol text: β-arrestin recruitment assay (PathHunter CHO-K1)
Assay type: cell-based
Design: host or cells: PathHunter CHO-K1
protocol conditions: relative to CP55,940
readout: β-arrestin efficacy compared to CP55,940, human CB2 (%)

>  <compound>
CNC(=O)[C@@H](NC(=O)c1nn(-c2c[n+]([O-])ccn2)c2c1C[C@H]1C[C@@H]21)C(C)(C)C [Compound 704]

>  <readout value>
106

$$$$
>  <compound>
Cc1nc(N2CCN(C)CC2)c2nc(-c3ccccc3Cl)n(C3CCOCC3)c2n1 [LY2828360]

>  <readout value>
41

$$$$
>  <compound>
CC(CO)(CO)NC(=O)c1nn(-c2cc(C#N)ccn2)c2c1C[C@H]1C[C@@H]21 [Compound 820]

>  <readout value>
82

$$$$
>  <compound>
O=C(NCC1CCOCC1)c1cnc(Nc2ccc(Cl)cc2Cl)nc1C(F)(F)F [GW842166X]

>  <readout value>
99

$$$$
>  <compound>
CC(C)(C)NC(=O)c1nn(-c2ccc(F)cc2F)c2c1C1CCC2C1 (centres unmarked) [GRC 10693]

>  <readout value>
100

$$$$

# credit: patent US20180252736A1
